// data source = ChEMBL document CHEMBL1146278

tested-system: Mycothiol S-conjugate amidase (Mycobacterium tuberculosis)
Sequence (whole entry): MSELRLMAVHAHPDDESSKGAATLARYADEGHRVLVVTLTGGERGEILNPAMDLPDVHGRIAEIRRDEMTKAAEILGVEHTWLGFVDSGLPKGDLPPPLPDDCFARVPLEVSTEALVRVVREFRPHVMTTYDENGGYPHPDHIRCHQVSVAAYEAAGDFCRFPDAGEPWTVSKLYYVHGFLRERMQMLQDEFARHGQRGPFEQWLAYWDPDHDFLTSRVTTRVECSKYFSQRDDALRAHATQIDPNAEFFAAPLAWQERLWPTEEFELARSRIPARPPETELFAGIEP
assay-method-text: Inhibition of Mycobacterium tuberculosis MCA at 50 uM
endpoint: inhibition (%)
Respond numerically; units are % and should not be typed.

Illustrative cases are given below, each with its answer.
1) O=C(N[C@H]1[C@@H](O[C@@H]2C[C@](O)(CO)C[C@@H](O)[C@H]2O)O[C@H](CO)[C@@H](O)[C@@H]1O)c1ccc([N+](=O)[O-])cc1
15
2) O=C(N[C@H]1[C@@H](O[C@@H]2C[C@](O)(CO)C[C@@H](O)[C@H]2O)O[C@H](CO)[C@@H](O)[C@@H]1O)c1ccncc1
46

query: Given the entry `O=C(N[C@H]1[C@@H](O[C@@H]2C[C@](O)(CO)C[C@@H](O)[C@H]2O)O[C@H](CO)[C@@H](O)[C@@H]1O)c1ccco1` , report its measured inhibition.
result: 15
